Quick reference for kd among some molecules
Target: T1, human PRLR ECD (Homo sapiens, UniProt P16471)
T1 construct: His6 (C); made in house; host or cells: Tn5 insect cells, baculovirus
T1 sequence (P16471 25-234): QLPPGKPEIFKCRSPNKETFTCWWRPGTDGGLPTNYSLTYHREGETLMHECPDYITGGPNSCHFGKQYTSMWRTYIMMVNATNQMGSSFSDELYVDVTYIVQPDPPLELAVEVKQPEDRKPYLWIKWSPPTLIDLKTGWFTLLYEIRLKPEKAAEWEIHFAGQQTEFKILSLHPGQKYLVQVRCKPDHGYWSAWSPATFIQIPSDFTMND
Experiment: Biacore kinetic titration, antibody captured on Protein A/G
Format: binding
Conditions: Table 9, Human PRLR ECD; unit not given

MOLECULE	kd
he.06.642-2: HUMAN-ENGINEERED antibody from XHA.06.642; variable regions SEQ ID NO: 88 and SEQ ID NO: 90 by order of listing (antibody, V domains shown) VH: EVQLVESGGGLVQPGGSLRLSCAVSGFTFSSYGMSWVRQAPGKGLEWVATVSSGGTYTYYPDSVKGRFTISRDNSKNTLYLQMNSLRAEDTAVYYCARHRGNYYATYYYAMDYWGQGTLVTVSS VL: DIVLTQSPDSLAVSLGERATINCKASKSVSTSGYTYMHWYQQKPGQPPKLLIYLASNRESGVPDRFSGSGSGTDFTLTISPVQAEDVATYYCQHSGELPPSFGQGTKLEIK	5.3E−04
he.06.275-1: HUMAN-ENGINEERED antibody from XHA.06.275; variable regions SEQ ID NO: 91 and SEQ ID NO: 93 by order of listing (antibody, V domains shown) VH: DVQLQESGPGLVKPSQTLSLTCTVTGYSITSDYAWNWIRQFPGKKLEWMGYISYSGSTSYNPSLKSRITISRDTSKNQFSLQLNSVTAADTATYFCARDYGYVFDYWGQGTTLTVSS VL: DVQITQSPSSLSASPGDRITLTCRASKNIYKYLAWYQEKPGKTNNLLIYSGSTLHSGIPSRFSGSGSGTDFTLTISSLQPEDFAMYYCQQHNDYPYTFGQGTKLEIK	3.1E−04
he.06.275-2: HUMAN-ENGINEERED antibody from XHA.06.275; variable regions SEQ ID NO: 91 and SEQ ID NO: 94 by order of listing (antibody, V domains shown) VH: QVQLQESGPGLVKPSQTLSLTCTVSGYSITSDYAWNWIRQFPGKGLEWMGYISYSGSTSYNPSLKSRITISRDTSKNQFSLQLNSVTAADTAVYFCARDYGYVFDYWGQGTTLTVSS VL: DVQITQSPSSLSASPGDRITLTCRASKNIYKYLAWYQEKPGKTNNLLIYSGSTLHSGIPSRFSGSGSGTDFTLTISSLQPEDFAMYYCQQHNDYPYTFGQGTKLEIK	3.7E−04
he.06.275-4: HUMAN-ENGINEERED antibody from XHA.06.275; variable regions SEQ ID NO: 92 and SEQ ID NO: 94 by order of listing (antibody, V domains shown) VH: QVQLQESGPGLVKPSQTLSLTCTVSGYSITSDYAWNWIRQFPGKGLEWMGYISYSGSTSYNPSLKSRITISRDTSKNQFSLQLNSVTAADTAVYFCARDYGYVFDYWGQGTTLTVSS VL: DVQITQSPSSLSASPGDRITLTCRASKNIYKYLAWYQEKPGKANKLLIYSGSTLHSGIPSRFSGSGSGTDFTLTISSLQPEDFAMYYCQQHNDYPYTFGQGTKLEIK	3.2E−04
he.06.275-3: HUMAN-ENGINEERED antibody from XHA.06.275; variable regions SEQ ID NO: 92 and SEQ ID NO: 93 by order of listing (antibody, V domains shown) VH: DVQLQESGPGLVKPSQTLSLTCTVTGYSITSDYAWNWIRQFPGKKLEWMGYISYSGSTSYNPSLKSRITISRDTSKNQFSLQLNSVTAADTATYFCARDYGYVFDYWGQGTTLTVSS VL: DVQITQSPSSLSASPGDRITLTCRASKNIYKYLAWYQEKPGKANKLLIYSGSTLHSGIPSRFSGSGSGTDFTLTISSLQPEDFAMYYCQQHNDYPYTFGQGTKLEIK	2.7E−04
